// IC50 lookup, one value per entry
molecular target: full-length SARM1 (FL-SARM1) (Homo sapiens); assay: FL-SARM1 cellular lysate assay (NAD/NADH-Glo readout of remaining NAD+); settings: Activity (μM), SARM1 cellular lysate from transfected HEK293T cells, NAD+ and NMN, 11 point curve
Sequence (Q6SZW1 28-724): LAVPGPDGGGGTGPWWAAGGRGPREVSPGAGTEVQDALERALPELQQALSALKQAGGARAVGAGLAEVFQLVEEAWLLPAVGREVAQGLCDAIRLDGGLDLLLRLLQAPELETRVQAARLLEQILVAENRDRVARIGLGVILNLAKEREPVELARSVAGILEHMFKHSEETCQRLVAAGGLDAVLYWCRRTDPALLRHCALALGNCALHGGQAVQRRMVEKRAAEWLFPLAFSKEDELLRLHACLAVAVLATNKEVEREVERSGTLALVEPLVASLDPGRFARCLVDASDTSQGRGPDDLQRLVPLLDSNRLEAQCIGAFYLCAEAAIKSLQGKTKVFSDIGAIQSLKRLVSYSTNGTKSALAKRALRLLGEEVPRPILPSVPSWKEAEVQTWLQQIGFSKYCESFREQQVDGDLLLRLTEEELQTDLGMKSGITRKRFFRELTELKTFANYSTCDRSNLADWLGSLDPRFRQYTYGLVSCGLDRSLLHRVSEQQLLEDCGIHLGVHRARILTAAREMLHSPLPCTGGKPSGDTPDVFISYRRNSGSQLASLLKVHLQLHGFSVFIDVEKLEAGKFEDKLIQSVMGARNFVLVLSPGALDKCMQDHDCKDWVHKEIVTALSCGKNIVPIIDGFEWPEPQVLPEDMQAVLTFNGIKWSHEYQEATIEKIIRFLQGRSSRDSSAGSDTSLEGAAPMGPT
READOUT KIND: IC50 (µM)

> print(dat)
                                   molecule  readout.kind  result.number
1  C[C@@H]1CC2C[C@@H](C1)N2C(=O)Nc1ccc(F)c(-c2cncc(F)c2)c1 (single isomer, unassigned)          IC50            0.3
2  O=C(Nc1ccc(C2CC2)c(-c2cncc(F)c2)c1)N1C2CCCC1C2          IC50              2
3  CO[C@@H]1CC[C@H]2CC1N2C(=O)Nc1ccc(C)c(-c2cncc(F)c2)c1          IC50              2
